- method: Stability and biodistribution of prodrugs in vivo (HPLC of plasma and tissues)
- Parameters: species or system mice (CD-1 nude; BALB/C where indicated)
- run parameters: CECUM, 120 min, 50 mg/kg i.p. or i.v., CD-1 nude mice
concentration of prodrug in cecum: recorded values
State the answer as a number, implicitly in nmol/g.

Cc1nc2ccc3ccc(CNc4ccc(C(=O)N[C@@H](CCC(=O)O)C(=O)N[C@@H](Cc5ccccc5C(=O)O)C(=O)O)c(F)c4)cc3c2c(=O)[nH]1 [Prodrug 4]; 1.3
CN(Cc1cnc2nc(N)nc(N)c2n1)c1ccc(C(=O)N[C@@H](CCC(=O)O)C(=O)N[C@@H](Cc2ccccc2C(=O)O)C(=O)O)cc1 [Prodrug 7]; 1.5
CN(Cc1cnc2nc(N)nc(N)c2n1)c1ccc(C(=O)N[C@@H](CCC(=O)O)C(=O)N[C@@H](Cc2ccccc2C2CCCC2)C(=O)O)cc1 [Prodrug 8]; 235.1
CN(Cc1cnc2nc(N)nc(N)c2n1)c1ccc(C(=O)N[C@@H](CCC(=O)O)C(=O)N[C@@H](Cc2cccc(C(C)(C)C)c2)C(=O)O)cc1 [Prodrug 12]; 402.3

Complete the entry with concentration of prodrug in cecum for Cc1nc2ccc3ccc(CNc4ccc(C(=O)N[C@@H](CCC(=O)O)C(=O)N[C@@H](Cc5ccccc5I)C(=O)O)c(F)c4)cc3c2c(=O)[nH]1 [Prodrug 5]
2.9

Complete the entry with concentration of prodrug in cecum for Cc1nc2ccc3ccc(CNc4ccc(C(=O)N[C@@H](CCC(=O)O)C(=O)N[C@@H](CCC(=O)O)C(=O)O)c(F)c4)cc3c2c(=O)[nH]1 [Prodrug 1]
1.2

Complete the entry with concentration of prodrug in cecum for CN(Cc1cnc2nc(N)nc(N)c2n1)c1ccc(C(=O)N[C@@H](CCC(=O)O)C(=O)N[C@@H](Cc2cccc(C3CCCC3)c2)C(=O)O)cc1 [Prodrug 9]
108.3

###

remaining at 0.5 h: recorded values
- method: Stability and biodistribution of prodrugs in vivo (HPLC of plasma and tissues)
- Design: species or system mice (CD-1 nude; BALB/C where indicated)
- run parameters: mouse, large intestine, 50 mg/kg, LARGE INTESTINE, 30 min, 50 mg/kg i.p. or i.v., CD-1 nude mice; read-out: stability: percentage of material observed as intact prodrug, large intestine
Include the unit right after the number.

Example compounds with recorded remaining at 0.5 h:
Cc1nc2ccc3ccc(CNc4ccc(C(=O)N[C@@H](CCC(=O)O)C(=O)N[C@@H](Cc5cccc6ccccc56)C(=O)O)c(F)c4)cc3c2c(=O)[nH]1 [Prodrug 3]; 87%
Cc1nc2ccc3ccc(CNc4ccc(C(=O)N[C@@H](CCC(=O)O)C(=O)N[C@@H](Cc5ccccc5I)C(=O)O)c(F)c4)cc3c2c(=O)[nH]1 [Prodrug 5]; 93%

--- query ---
Complete the entry with remaining at 0.5 h for CN(Cc1cnc2nc(N)nc(N)c2n1)c1ccc(C(=O)N[C@@H](CCC(=O)O)C(=O)N[C@@H](Cc2cccc(C3CCCC3)c2)C(=O)O)cc1 [Prodrug 9]
100%

###

remaining at 0.5 h: recorded values
- method: Stability and biodistribution of prodrugs in vivo (HPLC of plasma and tissues)
- Parameters: species or system mice (CD-1 nude; BALB/C where indicated)
- run parameters: mouse, liver, 50 mg/kg, LIVER, 30 min, 50 mg/kg i.p. or i.v., CD-1 nude mice; read-out: stability: percentage of material observed as intact prodrug, liver (converted)
Include the unit right after the number.

CN(Cc1cnc2nc(N)nc(N)c2n1)c1ccc(C(=O)N[C@@H](CCC(=O)O)C(=O)N[C@@H](Cc2cccc(C(C)(C)C)c2)C(=O)O)cc1 [Prodrug 12]; 91.3%

Complete the entry with remaining at 0.5 h for Cc1nc2ccc3ccc(CNc4ccc(C(=O)N[C@@H](CCC(=O)O)C(=O)N[C@@H](Cc5ccccc5C(=O)O)C(=O)O)c(F)c4)cc3c2c(=O)[nH]1 [Prodrug 4]
99%

Complete the entry with remaining at 0.5 h for CN(Cc1cnc2nc(N)nc(N)c2n1)c1ccc(C(=O)N[C@@H](CCC(=O)O)C(=O)N[C@@H](Cc2cccc(C3CCCC3)c2)C(=O)O)cc1 [Prodrug 9]
83%
